B1: KCNA1 (parent)
chain: LKASMRELGLLIFFLFIGVILFSS

- Variants of: B1
- ASSAY_INFO: protein stability index of a GFP-peptide fusion (GPS, HEK-293T) (PSI 1-6); higher = more stable;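 further: lentivirally expressed fusions sorted by FACS into six bins by GFP to DsRed ratio, PSI derived from sequencing read proportions per bin multiplied by bin number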
- EXPERIMENTAL_CONDITIONS: c terminus: a fixed tail appended
Decision: protein stability index >= 3 yields y, all other cases yield n.

{"CHANGES": "R6T", "ASSIGNED_LABEL": "y"}

Answer whether protein stability index of F13S is greater than or equal to 3. y

Answer whether protein stability index of S23C is greater than or equal to 3. n

Answer whether protein stability index of L1N is greater than or equal to 3. n

Answer whether protein stability index of S24Q is greater than or equal to 3. n

Answer whether protein stability index of F13Y is greater than or equal to 3. y

Answer whether protein stability index of L15W is greater than or equal to 3. n

Answer whether protein stability index of L11A is greater than or equal to 3. y

Answer whether protein stability index of M5K is greater than or equal to 3. n

Answer whether protein stability index of F13E is greater than or equal to 3. n

Answer whether protein stability index of I12K is greater than or equal to 3. n

Answer whether protein stability index of M5N is greater than or equal to 3. n
